Hey, just so you know, these numbers are from patent US20230212549A1.

# TARGET_DESC: Recombinant human FAP (R&D systems, #3715-SE) (human, UniProt Q12884 26-760)
# Sequence (Q12884 26-760 limits assumed): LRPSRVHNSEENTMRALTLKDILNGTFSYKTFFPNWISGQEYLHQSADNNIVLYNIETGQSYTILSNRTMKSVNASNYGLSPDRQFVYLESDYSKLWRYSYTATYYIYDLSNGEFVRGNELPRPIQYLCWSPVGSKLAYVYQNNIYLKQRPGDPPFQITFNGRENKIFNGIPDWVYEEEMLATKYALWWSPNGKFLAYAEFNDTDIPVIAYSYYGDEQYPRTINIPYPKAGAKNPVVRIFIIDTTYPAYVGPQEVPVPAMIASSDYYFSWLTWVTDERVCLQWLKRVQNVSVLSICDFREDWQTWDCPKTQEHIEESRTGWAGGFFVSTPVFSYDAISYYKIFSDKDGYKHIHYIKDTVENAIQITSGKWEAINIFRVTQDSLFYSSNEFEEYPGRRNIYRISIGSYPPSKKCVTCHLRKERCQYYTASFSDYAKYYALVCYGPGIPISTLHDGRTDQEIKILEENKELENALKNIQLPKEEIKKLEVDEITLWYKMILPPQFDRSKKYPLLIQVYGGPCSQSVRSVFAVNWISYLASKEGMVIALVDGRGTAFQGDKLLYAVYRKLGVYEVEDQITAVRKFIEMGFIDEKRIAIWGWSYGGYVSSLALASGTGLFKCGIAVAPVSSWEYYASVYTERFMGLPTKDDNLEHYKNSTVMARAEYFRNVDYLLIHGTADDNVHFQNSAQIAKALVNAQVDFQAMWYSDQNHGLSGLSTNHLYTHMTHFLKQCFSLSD
# ASSAY_TEXT: cell-based or functional assay
Numbered stars: 1 amine (or outer) side, 2 acyl side, 3 side chain; on linkers, the order of the positions; unused ones are H or OH. Bridge positions count the residues as written; N and C are the ends. Square brackets hold non-standard residues; d marks the D form. Primed or numbered codes have the meaning given here. * marks the point of attachment. TBMB(SCH2CH2NH-DOTA) = O=C(O)CN1CCN(CC(=O)O)CCN(CC(=O)NCCSCc2cc(C[*:1])cc(C[*:2])c2)CCN(CC(=O)O)CC1; Met(O2) = CS(=O)(=O)CC[C@H](N)C(=O)O; mXylylene = c1cc(C[*:1])cc(C[*:2])c1; Hexanoyl = CCCCCC(=O)*; NH(CH2)5NH2 = NCCCCCN*; Sar = CNCC(=O)O
// reported pIC50 Category (Activity) per item

# BINDER, TEST_READOUT, ASSAY_RESULT
measured = [
    ("Hexanoyl-CPPT[Met(O2)]FC-NH2 (linker 1-7 via mXylylene; SMILES CCCCCC(=O)N[C@H]1CSCc2cccc(c2)CSC[C@@H](C(N)=O)NC(=O)[C@H](Cc2ccccc2)NC(=O)[C@H](CCS(C)(=O)=O)NC(=O)[C@H]([C@@H](C)O)NC(=O)[C@@H]2CCCN2C(=O)[C@@H]2CCCN2C1=O) [Hex-[Cys(3MeBn)-Pro-Pro-Thr-Moo-Phe-Cys]-NH2]", "pIC50 Category (Activity)", "≤ 6 pIC50"),
    ("Hexanoyl-CPPTEFCDHFRD-NH2 (linker 1-7 via mXylylene; SMILES CCCCCC(=O)N[C@H]1CSCc2cccc(c2)CSC[C@@H](C(=O)N[C@@H](CC(=O)O)C(=O)N[C@@H](Cc2c[nH]cn2)C(=O)N[C@@H](Cc2ccccc2)C(=O)N[C@@H](CCCNC(=N)N)C(=O)N[C@@H](CC(=O)O)C(N)=O)NC(=O)[C@H](Cc2ccccc2)NC(=O)[C@H](CCC(=O)O)NC(=O)[C@H]([C@@H](C)O)NC(=O)[C@@H]2CCCN2C(=O)[C@@H]2CCCN2C1=O) [Hex-[Cys(3MeBn)-Pro-Pro-Thr-Glu-Phe-Cys]-Asp-His-Phe-Arg-Asp-NH2]", "pIC50 Category (Activity)", "> 8 pIC50"),
    ("Hexanoyl-CPPTQFCD-NH2 (linker 1-7 via tMeBn(InDOTA-PP); also: indium complex of DOTA, also called 3BP-3590) [Hex-[Cys(tMeBn(InDOTA-PP))-Pro-Pro-Thr-Gln-Phe-Cys]-Asp-NH2]", "pIC50 Category (Activity)", "> 8 pIC50"),
    ("H-[dM]CPPTEFCDHFRD-NH2 (linker 2-8 via mXylylene; SMILES CSCC[C@@H](N)C(=O)N[C@H]1CSCc2cccc(c2)CSC[C@@H](C(=O)N[C@@H](CC(=O)O)C(=O)N[C@@H](Cc2c[nH]cn2)C(=O)N[C@@H](Cc2ccccc2)C(=O)N[C@@H](CCCNC(=N)N)C(=O)N[C@@H](CC(=O)O)C(N)=O)NC(=O)[C@H](Cc2ccccc2)NC(=O)[C@H](CCC(=O)O)NC(=O)[C@H]([C@@H](C)O)NC(=O)[C@@H]2CCCN2C(=O)[C@@H]2CCCN2C1=O, also called 3BP-2976) [H-met-[Cys(3MeBn)-Pro-Pro-Thr-Glu-Phe-Cys]-Asp-His-Phe-Arg-Asp-NH2]", "pIC50 Category (Activity)", "> 8 pIC50"),
    ("Hexanoyl-CPPTQFCD-{NH(CH2)5NH2-DOTA′} (linker 1-7 via mXylylene, also called 3BP-3403) [Hex-[Cys(3MeBn)-Pro-Pro-Thr-Gln-Phe-Cys]-Asp-Ape-NH-DOTA′]", "pIC50 Category (Activity)", "> 8 pIC50"),
]

Now consider the entry below.
Can you share its pIC50 Category (Activity)? I mean this binder: Hexanoyl-C[Sar]PTQFC-OH (linker 1-7 via TBMB(SCH2CH2NH-DOTA); SMILES CCCCCC(=O)N[C@H]1CSCc2cc(CSCCNC(=O)CN3CCN(CC(=O)O)CCN(CC(=O)O)CCN(CC(=O)O)CC3)cc(c2)CSC[C@@H](C(=O)O)NC(=O)[C@H](Cc2ccccc2)NC(=O)[C@H](CCC(N)=O)NC(=O)[C@H]([C@@H](C)O)NC(=O)[C@@H]2CCCN2C(=O)CN(C)C1=O, also called 3BP-3678) [Hex-[Cys(tMeBn(DOTA-AET))-Nmg-Pro-Thr-Gln-Phe-Cys]-OH]
> 8 pIC50
